# Tested on: A2780
# experimentDescription: Cytotoxicity against human A2780 cells after 72 hrs by MTT assay
# Format: functional, cell-based
# conditionNotes: A2780, 72 h
propertyMeasured: pIC50
Conceptually, pIC50 converts a concentration in mol/L into minus its log10.

QUERY: Tell me the measured pIC50 of CC(C)[C@@H]1NC(=O)[C@H](C)OC(=O)[C@@H](C(C)C)NC(=O)[C@@H](C(C)C)OC(=O)[C@H](C(C)C)NC(=O)[C@H](C)OC(=O)[C@@H](C(C)C)NC(=O)[C@@H](C(C)C)OC(=O)[C@H](C(C)C)NC(=O)[C@H](C)OC(=O)[C@@H](C(C)C)NC(=O)[C@@H](C(C)C)OC1=O , please.
RESULT: 5.66

QUERY: Tell me the measured pIC50 of CC(C)[C@@H]1NC(=O)[C@H](C)OC(=O)[C@@H](C(C)C)NC(=O)[C@@H](C(C)C)OC(=O)[C@H](C(C)C)NC(=O)[C@H](C)OC(=O)[C@@H](C(C)(C)O)NC(=O)[C@@H](C(C)C)OC(=O)[C@H](C(C)C)NC(=O)[C@H](C)OC(=O)[C@@H](C(C)C)NC(=O)[C@@H](C(C)C)OC1=O , please.
RESULT: 5.34

QUERY: Tell me the measured pIC50 of CC(C)[C@@H]1NC(=O)[C@H](C)OC(=O)[C@@H](C(C)C)NC(=O)[C@@H](C(C)C)OC(=O)[C@H](C(C)(C)O)NC(=O)[C@H](C)OC(=O)[C@@H](C(C)C)NC(=O)[C@@H](C(C)C)OC(=O)[C@H](C(C)C)NC(=O)[C@H](C)OC(=O)[C@@H](C(C)C)NC(=O)[C@@H](C(C)C)OC1=O , please.
RESULT: 5.60
